# assay.overview: Pharmacokinetic profile of locally administered formulations vs i.v docetaxel (Example 11)
# Format: in vivo, Sprague-Dawley female Rats
# stated.conditions: female, Sprague-Dawley, rat, iv; plasma docetaxel; single i.v 10 mg/kg
attribute.measured: Tmax

compound="CC(=O)O[C@@]12CO[C@@H]1C[C@H](O)[C@@]1(C)C(=O)[C@H](O)C3=C(C)[C@@H](OC(=O)[C@H](O)[C@@H](NC(=O)OC(C)(C)C)c4ccccc4)C[C@@](O)([C@@H](OC(=O)c4ccccc4)[C@H]21)C3(C)C [docetaxel]" value_observed="0 h"

This collection of values is drawn from patent US20240050396A1.
